# procedureSummary: Ixazomib plasma pharmacokinetics, non-compartmental analysis
# Format: in vivo, human
# experimentalParameters: human, plasma, oral, 3 mg, AUC0–72, geometric mean (%CV), RP2D 3·0 mg, day 11

{"compound": "CC(C)C[C@H](NC(=O)CNC(=O)c1cc(Cl)ccc1Cl)B(O)O [ixazomib]", "AUC(0-t)": "1110 ng·h/mL"}
